- protocol.notes: Tested for inhibitory activity against Herpes simplex virus type-1(HSV-1), activity is expressed as IC50.
- Format: functional
measurement.label: IC50

> print(dat)
                                 molecule  endpoint.value
1  Nc1nc(O)c2ncn(C[C@]3(CO)C[C@H]3CO)c2n1      0.02 µg/mL

Recorded IC50 for O=c1[nH]c(=O)n(CC2(CO)CC2CO)cc1/C=C/Cl (configuration not stated) , please? 4.3 µg/mL

Recorded IC50 for Nc1nc2c(ncn2COCCO)c(=O)[nH]1 [ACYCLOVIR] , please? 0.81 µg/mL

Recorded IC50 for O=c1[nH]c(=O)n(CC2(CO)CC2CO)cc1Cl (configuration not stated) , please? 295 µg/mL

Recorded IC50 for Cc1cn(CC2(CO)CC2CO)c(=O)[nH]c1=O (configuration not stated) , please? > 500 µg/mL

Recorded IC50 for O=c1[nH]c(=O)n(CC2(CO)CC2CO)cc1F (configuration not stated) , please? > 500 µg/mL

Recorded IC50 for C#Cc1cn(CC2(CO)CC2CO)c(=O)[nH]c1=O (configuration not stated) , please? 310 µg/mL

Recorded IC50 for O=c1[nH]c(=O)n(CC2(CO)CC2CO)cc1/C=C/Br (configuration not stated) , please? 14.5 µg/mL

Recorded IC50 for O=c1[nH]c(=O)n(CC2(CO)CC2CO)cc1I (configuration not stated) , please? 90 µg/mL

Recorded IC50 for O=c1[nH]c(=O)n(CC2(CO)CC2CO)cc1Br (configuration not stated) , please? 215 µg/mL

Recorded IC50 for O=c1ccn(CC2(CO)CC2CO)c(=O)[nH]1 (configuration not stated) , please? > 500 µg/mL

Recorded IC50 for O=c1[nH]c(=O)n(CC2(CO)CC2CO)cc1/C=C/I (configuration not stated) , please? 24.6 µg/mL
